system: IFVA/Weiss/43; assay: cytopathic effect (CPE) antiviral test in MDCK cells, IFVA/Weiss/43; format: cell-based, influenza virus; details: unidentified influenza virus, MDCK, 120 h, read-out: EC50(IFVA/Weiss/43), MDCK cells, CPE method, CCK-8 cell viability, 5 days
So I've got a bunch of compounds here, and I need their EC50 values.

Study these solved cases before continuing.
{"compound": "Cn1ccnc1-c1ccc2nc(-c3ccnc(C(=O)N4CCN(C(c5ccccc5)c5nnn(C(F)F)n5)CC4)c3)oc2c1 (racemic) [Compound 107]", "measurement_target": "IFVA/Weiss/43", "EC50": "2 nM"}
{"compound": "CC(C)C(=O)Nc1ccc2oc(-c3ccnc(C(=O)N4CCN(C(c5ccccc5)c5nnn(C(F)F)n5)CC4)c3)nc2c1 (racemic) [Compound 97]", "measurement_target": "IFVA/Weiss/43", "EC50": "7 nM"}

Please report EC50 for every entry that follows.
1. Cn1nnc(C(c2ccccc2)N2CCN(C(=O)c3cc(-c4nc5cc(NC(=O)[C@H]6C[C@H]6F)ccc5o4)ccn3)CC2)n1 (stereo partly shown) [Compound 28]
2. O=C(c1cc(-c2nc3cc(-c4nccs4)ccc3o2)ccn1)N1CCN(C(c2ccccc2)c2nnn(C(F)F)n2)CC1 (racemic) [Compound 119]

*A*
17 nM
2 nM

Record EC50 per entry; entries follow.
1. O=C(c1cc(-c2nc3cc(-c4cnccn4)ccc3o2)ccn1)N1CCN(C(c2ccccc2)c2nnn(C(F)F)n2)CC1 (racemic) [Compound 112]
2. CC(=O)Nc1ccc2oc(-c3ccnc(C(=O)N4CC5CC(C4)N5C(c4ccccc4)c4nnn(C)n4)c3)nc2c1 (stereo not shown) [Compound 23]
3. CC(=O)Nc1ccc2oc(-c3ccnc(C(=O)N4CC5(C4)CN(C(c4ccccc4)c4nnn(C)n4)C5)c3)nc2c1 (stereo not shown) [Compound 10]

*A*
["11 nM", "> 10000 nM", "> 10000 nM"]

For every item below, please supply its EC50.
1. CC(=O)Nc1ccc2oc(-c3ccnc(C(=O)N4CCN(C(c5ccccc5)c5nnn(C)n5)[C@H](C)C4)c3)nc2c1 (single isomer, unassigned) [Compound 16b]
2. Cn1nnc(C(c2ccccc2)N2CCN(C(=O)c3cc(-c4nc5cc(NC(=O)[C@@H]6C[C@@H]6F)ccc5o4)ccn3)CC2)n1 (stereo partly shown) [Compound 26]
3. CC(=O)Nc1ccc2oc(-c3ccnc(C(=O)N4CC5(CCN(C(c6ccccc6)c6nnn(C)n6)CC5)C4)c3)nc2c1 (stereo not shown) [Compound 8]

*A*
["> 10000 nM", "3 nM", "> 10000 nM"]

Please report EC50 for every entry that follows.
1. COC(=O)Nc1ccc2oc(-c3ccnc(C(=O)N4CCN(C(c5ccccc5)c5nnn(C)n5)CC4)c3)nc2c1 (stereo not shown) [Compound 51]
2. CC(=O)Nc1ccc2nn(-c3ccnc(C(=O)N4CCN(C(c5ccccc5)c5nnn(C(F)F)n5)CC4)c3)cc2c1 (stereo not shown) [Compound 60]
3. Cn1nnc(C(c2ccccc2)N2CCN(C(=O)c3cc(-c4nc5cc(NC(=O)[C@@H]6CC6(F)F)ccc5o4)ccn3)CC2)n1 (stereo partly shown) [Compound 24]

*A*
1. 84 nM
2. 54 nM
3. 12 nM
